Reference source for all entries: a flash point compilation (Sun et al. 2020)

Measured metric: flash point
Write your answer as a measured quantity: the number, then the unit.

Some solved cases for reference:
CCCCCCC(C)O (configuration not stated) [octan-2-ol]
85.00 °C
CC(Cl)OC(C)Cl (configuration not stated) [1-chloro-1-(1-chloroethoxy)ethane]
55.00 °C
Clc1ccc(Oc2ccccc2)cc1 [1-chloro-4-(phenoxy)benzene]
113.00 °C
C=COCC [ethoxyethylene]
-46.00 °C
C=CC(O)CCCCC (configuration not stated) [oct-1-en-3-ol]
68.00 °C

Report flash point for every entry below.
1. CCCC(C)O (configuration not stated) [pentan-2-ol]
2. CC(=O)c1ccccn1 [1-(2-pyridyl)ethanone]
3. COCCOCCOCCOC [1,2-bis(2-methoxyethoxy)ethane]
4. CCNCC [N-ethylethanamine]
5. CCC(C)(C)O [2-methylbutan-2-ol]
6. OCCOCCOCCO [2-[2-(2-hydroxyethoxy)ethoxy]ethanol]
7. Nc1cccc(Cl)c1 [3-chloroaniline]

40.56 °C
76.00 °C
113.00 °C
-28.00 °C
20.00 °C
162.78 °C
118.00 °C

###

I'd be grateful if you could share measured flash point for these entries.
Give bare numbers, in °C.

CCO[Si](CCCCCCS(=O)(=O)N=[N+]=[N-])(OCC)OCC
114.00
C=CC(=O)O[Si](C)(C)C
26.00
C=CC[Si](O[Si](C)(C)C)(O[Si](C)(C)C)O[Si](C)(C)C
67.00

For this compound ( `CCO[Si](CCCCN)(OCC)OCC` ), measured flash point is 109.00

###

Mark N for flash point values under 70 °C, and Y for everything at or above.

Use the examples below as a reference point.
c1cc[nH]c1
N
Cc1cc(C)cc(O)c1
Y
CCOP(=S)(OCC)SCSP(=S)(OCC)OCC
Y
CC(C)OCCO
N
Cc1ccc(S(=O)(=O)[N-]Cl)cc1.[Na+] [sodium;chloro-(4-methylphenyl)sulfonylazanide]
Y
CCC(Cl)Cl
N
CCOCC(C)O (configuration not stated)
N
CC=CCCCCCC
N
CCCCCCCCCCCCCCCCCCCCCCCCC
Y
C=CC(=O)OCCOC [2-methoxyethyl prop-2-enoate]
Y

Okay, next one:
API: above_or_equal(metric=flash point, cutoff=70 °C) for item `CCCC=O`
N

###

I'd be grateful if you could share measured flash point for these entries.
Numbers only, in °C.

// below: answered molecules
CCN(C)CC
-23
CCC(C)(C)C(C)C(C)C (configuration not stated)
31
C1CCCC1
-37
CSSC [dimethyldisulfide]
10
CCCC(CC)CCC
15
CCCCNc1ccccc1
107

I have 6 molecules here; please give me flash point for each one.
1. CCC(=O)CC(C)CC (configuration not stated)
2. CCc1cccc(C(C)C)c1
3. Cc1ccco1
4. CCCCCC(=O)CCC
5. CC1CCCCCCC1=O (configuration not stated)
6. CCNC(C)=O [N-ethylacetamide]

[43, 63, -26, 62, 71, 106]

###

Please provide measured flash point for the entries that follow.
Give bare numbers, in °C.

Recorded results for 8 compounds are shown here.
CCC(CC)C(C)(C)C [3-Ethyl-2,2-dimethylpentane]
13
CCCCC(C)C(C)C (configuration not stated) [2,3-Dimethylheptane]
15
CCC(C)CC(C)(C)C (configuration not stated) [2,2,4-Trimethylhexane]
15
CCC(C)CC(CC)CC (configuration not stated) [3-Ethyl-5-methylheptane]
31
CCC(C)C(CC)CC (configuration not stated) [3-Ethyl-4-methylhexane]
15
CCCC(C)(C)CC [3,3-Dimethylhexane]
-1
CCC(C)CC(C)CC (configuration not stated) [3,5-Dimethylheptane]
15
CCC(C)C(C)CC (configuration not stated) [3,4-Dimethylhexane]
4

Kindly give each listed record's flash point.
1. CCCCC(C)(CC)CC [3-Ethyl-3-methylheptane]
2. CC(C)(C)C [2,2-Dimethylpropane]
3. CCCCCC(C)(C)CC [3,3-Dimethyloctane]
4. CCC(C)(C)C(C)(C)CC [3,3,4,4-Tetramethylhexane]

[41, -65, 41, 31]

###

Rule: yes (1) for flash point not less than 20 °C, no (0) for anything less.

Reference set (3 entries):
CC(=O)C(C)(C)C [Pinacolone]
no (0)
CCCO [1-PROPANOL]
no (0)
CCCCCCCC(C)C [Nonane, 2-methyl-]
yes (1)

Tell me whether flash point is at least 20 °C here: CCCCCC=O [1-HEXANAL]
yes (1)

Say whether C=C(C)CCCC [1-Hexene, 2-methyl-] shows flash point of 20 °C or more.
no (0)

Quick check, flash point >= 20 °C? COCC(C)OC (centres undefined) [1,2-DIMETHOXYPROPANE]
no (0)

State whether the measured flash point reaches 20 °C, counting equality as reaching it, for CCOC(C)OCC [Ethane, 1,1-diethoxy-]
no (0)

Does flash point meet or surpass 20 °C for NC1CCCCC1 [Cyclohexanamine] ?
yes (1)

###

Answer each item with its documented flash point.
Answers are plain numbers, in °C.

CC(C)=CCC/C(C)=C\CO
107.00
CCCCCCCCCCO
82.00
CC1=CCC(=C(C)C)CC1
64.00
Clc1c(Cl)c(Cl)c(Cl)c(Cl)c1Cl
242.00
O=S(=O)(O)c1ccccc1
113.00
CCC(C(=O)O)C(=O)O
85.00
CCOP(=S)(OCC)SCn1c(=O)oc2cc(Cl)ccc21
100.00
Nc1cccc(N)c1
138.00

Return reported flash point values for all items listed beneath this line.
1. CCCCC(CC)COC(C)=O (configuration not stated) [2-ethylhexyl acetate]
2. O=[N+]([O-])C(Br)(CO)CO
3. COC(=O)c1ccccc1 [methyl benzoate]

[88.00, 167.00, 83.00]

For every item in the list below, what is its measured flash point?
1. CCC(C)(C)c1ccc(O)cc1
2. CCOC(=O)OCC [diethyl carbonate]
3. C=CC=C(C)C
4. C1O[C@H]1[C@H]1CO1 [(2R)-2-[(2R)-oxiran-2-yl]oxirane]

1. 111.00
2. 25.00
3. -34.00
4. 46.00

Give one value of flash point per listed molecule.
1. CC(=O)CCC(C)C
2. C=CCSSCCC

1: 36.00; 2: 56.00

Below are 2 molecules. Give each one its flash point.
1. CCCCC(CC)COP(=O)(OCC(CC)CCCC)OCC(CC)CCCC (configuration not stated) [tris(2-ethylhexyl) phosphate]
2. Cc1ccc(C)o1

1. 152.00
2. -1.00

###

Record form. Attribute: flash point. Fill in for each entry.
Give bare numbers, in °C.

Known results for compounds:
C=CC(C)CCC (stereo not drawn)
-18
CCC1CCCC1
-4

Provide each entry's flash point from the list below.
1. CCc1ccc(C)cc1
2. C=CCCO
3. CCCCC(C)CC (stereo not drawn)
4. OCC1CCCC1
5. C=CC=O

1: 36; 2: 32; 3: 6; 4: 62; 5: -19

###

Measured metric: flash point (°C)
Numbers only, in °C.

Would you mind listing flash point for each of the following compounds?
1. CCCCC(CC)C(=O)[O-].CCCCC(CC)C(=O)[O-].[Ca+2] (centres undefined) [CALCIUM 2-ETHYLHEXANOATE]
2. CC(C)[O-].CC(C)[O-].CC(C)[O-].[B+3] [BORON ISOPROPOXIDE]
3. CCOP(OCC)OCC [TRIETHYLPHOSPHITE]
4. C[Si](C)(C)OB(O[Si](C)(C)C)O[Si](C)(C)C [TRIS(TRIMETHYLSILOXY)BORON]
5. C[N-]C.C[N-]C.C[N-]C.C[N-]C.[Ti+4] [TITANIUM TETRAKIS(DIMETHYLAMIDE)]
6. Cc1ccccc1[O-].Cc1ccccc1[O-].Cc1ccccc1[O-].Cc1ccccc1[O-].[Ti+4] [TITANIUM METHYLPHENOXIDE]
7. CCCCCCCCP(CCCCCCCC)CCCCCCCC [TRIOCTYLPHOSPHINE]

[127.00, 28.00, 54.00, 42.00, 8.00, 66.00, 147.00]

Batch request: flash point per item, same order as input.
1. C[O-].C[O-].C[O-].[B+3] [BORON METHOXIDE]
2. [CH3][Cd][CH3] [DIMETHYLCADMIUM]

-1.00
-18.00

Please state flash point for every compound in the list that follows.
1. c1ccc(Pc2ccccc2)cc1 [DIPHENYLPHOSPHINE]
2. CC[N-]C.CC[N-]C.CC[N-]C.CC[N-]C.[Zr+4] [ZIRCONIUM TETRAKIS(ETHYLMETHYLAMIDE)]
3. CC[N](CC)[Ta](=[N]C(C)(C)C)([N](CC)CC)[N](CC)CC [TRIS(DIETHYLAMINO)(t-BUTYLIMINO) TANTALUM]

110.00
10.00
46.00

Give flash point for each listed item.
1. CCCC[O-].CCCC[O-].CCCC[O-].CCCC[O-].[Ti+4] [TITANIUM n-BUTOXIDE]
2. CCCC[O-].CCCC[O-].CCCC[O-].[B+3] [BORON n-BUTOXIDE]

1: 76.00; 2: 93.00
